- system: P-glycoprotein (Homo sapiens, UniProt P08183)
- Sequence (P08183 whole entry): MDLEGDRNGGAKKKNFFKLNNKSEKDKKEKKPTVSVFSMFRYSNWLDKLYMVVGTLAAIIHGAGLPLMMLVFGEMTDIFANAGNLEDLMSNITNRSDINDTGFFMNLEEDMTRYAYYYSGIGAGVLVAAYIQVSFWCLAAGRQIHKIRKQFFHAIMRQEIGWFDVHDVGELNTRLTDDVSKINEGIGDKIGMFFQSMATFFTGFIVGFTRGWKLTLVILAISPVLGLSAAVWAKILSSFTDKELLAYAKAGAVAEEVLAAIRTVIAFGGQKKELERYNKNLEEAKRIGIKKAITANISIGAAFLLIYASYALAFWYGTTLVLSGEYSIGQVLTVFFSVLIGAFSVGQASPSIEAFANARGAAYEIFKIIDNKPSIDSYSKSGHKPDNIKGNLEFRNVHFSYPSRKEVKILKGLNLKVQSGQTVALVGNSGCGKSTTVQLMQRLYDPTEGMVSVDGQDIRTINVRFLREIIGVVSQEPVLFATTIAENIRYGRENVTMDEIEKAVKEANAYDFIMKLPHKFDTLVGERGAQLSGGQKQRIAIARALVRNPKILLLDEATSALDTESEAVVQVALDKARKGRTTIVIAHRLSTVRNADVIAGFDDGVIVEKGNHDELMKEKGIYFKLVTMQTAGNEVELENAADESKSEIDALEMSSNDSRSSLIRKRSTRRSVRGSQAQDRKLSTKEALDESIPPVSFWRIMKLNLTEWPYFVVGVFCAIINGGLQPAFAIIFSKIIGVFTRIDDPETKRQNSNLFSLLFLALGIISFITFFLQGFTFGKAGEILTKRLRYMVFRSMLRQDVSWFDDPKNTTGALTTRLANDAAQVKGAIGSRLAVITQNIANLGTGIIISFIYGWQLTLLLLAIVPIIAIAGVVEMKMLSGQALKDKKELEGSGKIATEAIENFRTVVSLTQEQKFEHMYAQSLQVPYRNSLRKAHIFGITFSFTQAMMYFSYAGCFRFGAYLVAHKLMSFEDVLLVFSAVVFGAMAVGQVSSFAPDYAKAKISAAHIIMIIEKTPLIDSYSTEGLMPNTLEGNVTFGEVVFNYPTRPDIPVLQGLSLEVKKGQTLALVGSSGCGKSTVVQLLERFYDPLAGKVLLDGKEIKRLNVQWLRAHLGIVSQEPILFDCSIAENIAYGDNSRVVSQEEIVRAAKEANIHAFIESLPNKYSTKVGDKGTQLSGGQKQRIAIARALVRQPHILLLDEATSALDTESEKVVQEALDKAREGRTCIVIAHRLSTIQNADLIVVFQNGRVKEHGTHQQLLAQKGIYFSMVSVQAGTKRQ
- experimentSummary: in vitro
- recordedConditions: dog, MDCK-MDR1
One threshold, 10 ×10⁻⁶ cm/s, splits the recorded Papp A→B at 2 h values: lower ones are condition met, equal or higher ones are condition not met.

Past entries and their recorded results:
molecule | system | qualitativeLabel
COCCc1ccc(OCC(O)CNC(C)C)cc1 (stereo not drawn) [Metoprolol, reference compound] | P-glycoprotein (Homo sapiens, UniProt P08183) | condition not met
COc1cc2nc(N3CCN(C(=O)c4ccco4)CC3)nc(N)c2cc1OC [Prazosin, reference compound] | P-glycoprotein (Homo sapiens, UniProt P08183) | condition not met
Cc1ccc(NC(=O)c2ccc(CN3CCN(C)CC3)cc2)cc1Nc1nccc(-c2cccnc2)n1 [Imatinib, reference compound] | P-glycoprotein (Homo sapiens, UniProt P08183) | condition met

Q. Below 10 ×10⁻⁶ cm/s on Papp A→B at 2 h? Entry O=[N+]([O-])c1ccc(C(OP(=O)(N2CC2)N2CC2)C(F)(F)F)c2ccccc12 (stereo not drawn)
A. condition not met

Q. Below 10 ×10⁻⁶ cm/s on Papp A→B at 2 h? Entry CC(OP(=O)(N1CC1)N1CC1)c1ccc([N+](=O)[O-])c2cnccc12 (stereo not drawn)
A. condition not met

Q. Below 10 ×10⁻⁶ cm/s on Papp A→B at 2 h? Entry O=[N+]([O-])c1ccc(COP(=O)(N2CC2)N2CC2)c2ncccc12
A. condition not met

====

- System: H460 cell line
- experimentSummary: Hypoxia-dependent cytotoxicity experiment (2 hours exposure, air or N2, CTG)
- Type: cell-based
- recordedConditions: Homo sapiens, NCI-H460, H460, hypoxia (N2), then 3 days, read-out: N2: IC50
measurementKind: IC50

Below are worked cases with known answers.
molecule | measurementKind | recordedValue
O=[N+]([O-])c1c(COP(=O)(N2CC2)N2CC2)ccc2ccccc12 | IC50 | 634 nM
CC(OP(=O)(N1CC1)N1CC1)c1ccc([N+](=O)[O-])c2ccccc12 (centres unmarked) | IC50 | < 9.8 nM
Cn1c(COP(=O)(NCCBr)NCCBr)cnc1[N+](=O)[O-] [Control 1, Evofosfamide, reference compound] | IC50 | 47.9 nM
O=[N+]([O-])c1ccc(C(OP(=O)(N2CC2)N2CC2)C(F)(F)F)c2ccccc12 (centres unmarked) | IC50 | 23.9 nM

Kindly review the next molecule as well.
In plain terms, O=[N+]([O-])c1ccc(C(OP(=O)(N2CC2)N2CC2)C(F)(F)F)cc1 (centres unmarked) [Control 2, reference compound] has a documented IC50 of 7080 nM

====

- system: UniProt:P08183
- experimentSummary: in vitro
- recordedConditions: dog, MDCK-MDR1, Recovery (%) AP-BL, Verapamil 0 μM
measurementKind: recovery at 2 h (%)
Answers are plain numbers, in %.

Below are worked cases with known answers.
compound | unit | recovery at 2 h
CC(OP(=O)(N1CC1)N1CC1)c1ccc([N+](=O)[O-])c2cnccc12 (stereo not drawn) | % | 91.1
O=[N+]([O-])c1ccc(C(OP(=O)(N2CC2)N2CC2)C(F)(F)F)c2ccccc12 (stereo not drawn) | % | 58.6

Kindly review the next compound as well.
In plain terms, O=[N+]([O-])c1ccc(COP(=O)(N2CC2)N2CC2)c2ncccc12 has a documented recovery at 2 h of 92.7
